System: Plasmodium falciparum
Test: Confirmatory screen in NF54 pLDH assay, in single point, at 2uM, 72h
Assay type: functional, Erythrocyte
Settings: timepoint 72 hour
In all, about 4,800 compounds went through this assay and about 410 (8.5%) showed an effect of 50% or more. This is one part of a sample in which strong results are shown more often than they occur.
measurement.type: % Inhibition

O=C(Cn1c(=O)n(Cc2ccco2)c(=O)c2ccccc21)NC1CCCCC1 | 10%
CCOC(=O)NC(c1ccccc1F)C1CCCCC1=O (stereo unspecified) | 1%
O=C(NCCN1CCCC1)c1cc2n(n1)CCN(Cc1cccc(F)c1)C2=O | -27%
O=C(NC1CCCC1)c1cnn2c3c(cnc12)CCCCCC3 | 11%
CC(C)(C)c1cc2c(NCC3=CCOCC3)nccn2n1 | 9%

Switching to the query record.
Recorded result, CCn1nc(C)c(CN(C)S(=O)(=O)c2ccc(N3CCCC3=O)cc2)c1C , % Inhibition: -1%
